Entry source: patent US20250320203A1

tested system: CDK2 (Homo sapiens, UniProt P24941)
reported property: pIC50
// pIC50 here means minus log10 of the molar concentration (mol/L)

## Task Would you kindly share the measured pIC50 for NC(=O)c1ccc(-c2nc3ccc4[nH]ncc4c3c3c2CCCC3)cc1 [HSD1217, reference compound] ?
## Result 6.73

## Task Would you kindly share the measured pIC50 for O=C(NO)c1ccc(-c2nc3ccc4[nH]ncc4c3c3c2CCCC3)cc1 ?
## Result 8.40

* * *

tested system: UniProt Q8TF76
Sequence (Q8TF76 1-798): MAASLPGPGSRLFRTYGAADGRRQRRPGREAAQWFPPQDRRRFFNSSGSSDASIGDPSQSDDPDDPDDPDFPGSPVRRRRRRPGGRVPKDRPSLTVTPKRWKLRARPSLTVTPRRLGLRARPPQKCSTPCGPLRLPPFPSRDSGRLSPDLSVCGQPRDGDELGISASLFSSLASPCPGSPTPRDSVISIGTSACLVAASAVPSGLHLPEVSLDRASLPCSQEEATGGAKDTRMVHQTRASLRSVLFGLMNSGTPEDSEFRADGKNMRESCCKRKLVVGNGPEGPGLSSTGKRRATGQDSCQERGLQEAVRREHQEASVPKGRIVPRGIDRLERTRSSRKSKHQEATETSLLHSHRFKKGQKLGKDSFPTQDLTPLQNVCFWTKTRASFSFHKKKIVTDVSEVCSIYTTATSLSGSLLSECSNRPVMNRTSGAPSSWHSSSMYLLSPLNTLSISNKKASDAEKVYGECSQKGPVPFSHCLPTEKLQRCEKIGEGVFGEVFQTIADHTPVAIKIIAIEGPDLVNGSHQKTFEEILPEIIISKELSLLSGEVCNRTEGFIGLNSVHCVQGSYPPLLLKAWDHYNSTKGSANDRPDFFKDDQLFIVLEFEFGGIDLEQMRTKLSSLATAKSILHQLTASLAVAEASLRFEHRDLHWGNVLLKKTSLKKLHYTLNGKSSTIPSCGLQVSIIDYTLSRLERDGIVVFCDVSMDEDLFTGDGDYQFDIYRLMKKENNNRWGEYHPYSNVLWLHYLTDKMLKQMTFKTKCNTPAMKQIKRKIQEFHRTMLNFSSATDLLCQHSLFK
reported property: pKd
// pKd here means minus log10 of the molar concentration (mol/L)

## Task Would you kindly share the measured pKd for Cc1c[nH]c(CNC(=O)c2ccc(-c3nc4ccc5[nH]ncc5c4c4c3CCCC4)cc2)n1 [Compound HSK205] ?
## Result 9.26
